Molecular target: human FXR (Homo sapiens)
Sequence (Q96RI1 262-486 limits assumed): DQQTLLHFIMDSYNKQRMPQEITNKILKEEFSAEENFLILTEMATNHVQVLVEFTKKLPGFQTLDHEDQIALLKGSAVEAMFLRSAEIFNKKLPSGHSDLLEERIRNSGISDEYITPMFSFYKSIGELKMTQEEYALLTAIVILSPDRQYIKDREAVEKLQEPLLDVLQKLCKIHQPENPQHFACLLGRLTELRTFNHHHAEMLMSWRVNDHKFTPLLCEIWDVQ
Assay: transient human FXR/Gal4-luciferase reporter assay
Settings: Gal4-hFXR LBD fusion, luciferase reporter in HEK293 cells; response relative to 8 μM GW-4064
Result type: EC50 (nM)

(a) CC(C)(C)c1noc(C23CCC(CN(C(=O)C4CCC(F)(F)CC4)c4cccc(-c5cnn6cc(Cl)cnc56)c4)(CC2)CC3)n1 [Example 141]
(b) CC(C)(C)c1noc(C23CCC(CN(C(=O)C4CCC(F)(F)CC4)c4cccc(-c5cc(C6CC6)no5)c4)(CC2)CC3)n1 [Example 147]
Name the one with the greater EC50 value, either a or b as given. Label of pick, please.
a
(a: 549 nM, b: 205 nM)

====

Molecular target: human FXR (Homo sapiens, UniProt Q96RI1)
Assay: transient human FXR/Gal4-luciferase reporter assay
Conditions: Gal4-hFXR LBD fusion, luciferase reporter in HEK293 cells; response relative to 8 μM GW-4064
pEC50: −log10 of the molar value.
Result type: pEC50

>  <Molecule>
COc1cc(-c2cccc(N(CC34CCC(c5nc(C6CC6)no5)(CC3)CC4)C(=O)C3CCCCC3)c2)ccn1 [Example 75]

>  <Observed value>
6.89

$$$$
>  <Molecule>
CCOc1ncc(-c2cccc(N(CC34CCC(c5noc(C(C)(C)C)n5)(CC3)CC4)C(=O)C3CCOCC3)c2)cn1 [Example 88]

>  <Observed value>
6.64

$$$$
>  <Molecule>
O=C(C1CCC(F)(F)CC1)N(CC12CCC(c3nc(C4CC4)no3)(CC1)CC2)c1cccc(-c2nc(CC3CC3)no2)c1 [Example 43]

>  <Observed value>
6.42

$$$$
>  <Molecule>
CCOc1ccc(-c2cccc(N(CC34CCC(c5nc(C(C)(C)C)no5)(CC3)CC4)C(=O)C3CCC(OC)CC3)c2)cc1 (single isomer, unassigned) [Example 146]

>  <Observed value>
6.40

$$$$
>  <Molecule>
CC(C)(C)c1noc(C23CCC(CN(C(=O)C4CCC(F)(F)CC4)c4cc(F)cc(-c5nc(C6CC6)no5)c4)(CC2)CC3)n1 [Example 114]

>  <Observed value>
6.49

$$$$

(1) CC(F)(F)c1nc(C23CCC(CN(C(=O)C4CCOCC4)c4cccc(-c5cn[nH]c(=O)c5)c4)(CC2)CC3)no1 [Example 129]
(2) CCOc1ncc(-c2cccc(N(CC34CCC(c5nc(C(C)(C)C)no5)(CC3)CC4)C(=O)C3CCOCC3)c2)cn1 [Example 87]
(3) O=C(C1CCOCC1)N(CC12CCC(c3nc(C4CC4)no3)(CC1)CC2)c1cccc(-c2nc(CC3CC3)no2)c1 [Example 44]
Order by pEC50, ascending. List the labels, following the order given in the request.
1, 2, 3

(A) COc1cc(-c2cccc(N(CC34CCC(c5nc(C)no5)(CC3)CC4)C(=O)C3CCCCC3)c2)ccn1 [Example 73]
(B) CC(F)(F)c1nc(C23CCC(CN(C(=O)C4CCOCC4)c4ccc(F)c(-c5ccc(P(C)(C)=O)cc5)c4)(CC2)CC3)no1 [Example 122]
(C) CCCc1ncc(-c2cccc(N(CC34CCC(c5nc(C6CC6)no5)(CC3)CC4)C(=O)C3CCCCC3)c2)o1 [Example 28]
Hey, can you sort those molecules up there by pEC50, smallest first? Use the labels to give the ranking in the order requested.
B, A, C
(B: 5.88, A: 6.29, C: 7.47)

(1) CN1CCC(C(=O)N(CC23CCC(c4noc(C(C)(C)C)n4)(CC2)CC3)c2cccc(-c3nc(C4CC4)no3)c2)CC1 [Example 118]
(2) O=C(C1CCC(F)(F)CC1)N(CC12CCC(c3nc(CC4CC4)no3)(CC1)CC2)c1cccc(-c2nc(CC3CC3)no2)c1 [Example 42]
Of 1 and 2 , which shows the smaller pEC50 value? Please indicate the selected item by its label.
1

====

Target: human FXR (Homo sapiens)
Test: transient human FXR/Gal4-luciferase reporter assay
Details: Gal4-hFXR LBD fusion, luciferase reporter in HEK293 cells; response relative to 8 μM GW-4064
Result type: EC50 (nM)

Guide cases for EC50, answers given:
>  <Molecule>
CC(C)(C)c1nc(C23CCC(CN(C(=O)C4CCC(F)(F)CC4)c4cccc(-c5cc(C6CC6)on5)c4)(CC2)CC3)no1

>  <EC50, nM>
41

$$$$
>  <Molecule>
O=C(N1CCOCC1)N(CC12CCC(c3nc(C4CC4)no3)(CC1)CC2)c1cccc(-c2nc(C3CC3)no2)c1

>  <EC50, nM>
739

$$$$
>  <Molecule>
O=C(C1CCS(=O)(=O)CC1)N(CC12CCC(c3nc(C4CC4)no3)(CC1)CC2)c1cccc(-c2cc(C3CC3)no2)c1

>  <EC50, nM>
662

$$$$
>  <Molecule>
Cn1nc(C2CC2)cc1C12CCC(CN(C(=O)C3CCOCC3)c3cccc(-c4cc(C5CC5)no4)c3)(CC1)CC2

>  <EC50, nM>
87

$$$$
>  <Molecule>
CC(F)(F)c1nc(C23CCC(CN(C(=O)C4CCC(F)(F)CC4)c4ccc(F)c(-c5ccc(S(C)(=O)=O)cc5)c4)(CC2)CC3)no1

>  <EC50, nM>
1020

$$$$

(I) COc1nccc(-c2cccc(N(CC34CCC(c5nc(C6CC6)no5)(CC3)CC4)C(=O)C3CCOCC3)c2)n1
(II) CCOc1ncc(-c2cc(N(CC34CCC(c5noc(C(C)(F)F)n5)(CC3)CC4)C(=O)C3CCC(F)(F)CC3)ccc2F)cn1
(III) CCc1noc(-c2cccc(N(CC34CCC(c5nc(C6CC6)no5)(CC3)CC4)C(=O)C3CCCCC3)c2)n1
Order the 3 molecules from highest to lowest EC50. Thanks in advance for listing the labels in the requested order.
I, II, III

====

Target: human FXR (Homo sapiens)
Sequence (Q96RI1 262-486 limits assumed): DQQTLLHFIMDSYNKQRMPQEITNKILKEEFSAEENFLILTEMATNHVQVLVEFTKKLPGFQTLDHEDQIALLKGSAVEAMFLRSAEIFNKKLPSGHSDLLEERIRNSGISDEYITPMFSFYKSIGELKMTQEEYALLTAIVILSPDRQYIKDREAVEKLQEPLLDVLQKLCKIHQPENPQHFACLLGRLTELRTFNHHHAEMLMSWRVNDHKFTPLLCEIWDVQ
Assay: transient human FXR/Gal4-luciferase reporter assay
Settings: Gal4-hFXR LBD fusion, luciferase reporter in HEK293 cells; response relative to 8 μM GW-4064
Result type: EC50 (nM)

These solved cases illustrate the format of a correct answer.
>  <Compound>
O=C(N1CCC(N2CCCCC2)CC1)N(CC12CCC(c3nc(C4CC4)no3)(CC1)CC2)c1cccc(-c2nc(C3CC3)no2)c1

>  <EC50 / nM>
4820

$$$$
>  <Compound>
CC(F)(F)c1nc(C23CCC(CN(C(=O)C4CCOCC4)c4cccc(-c5ccc(OC(F)F)cc5)c4)(CC2)CC3)no1

>  <EC50 / nM>
50

$$$$
>  <Compound>
CCOc1ncc(-c2cccc(N(CC34CCC(c5nc(C(C)(C)C)no5)(CC3)CC4)C(=O)c3cc(Cl)cc(Cl)c3)c2)cn1

>  <EC50 / nM>
726

$$$$
>  <Compound>
O=C(C1CCOCC1)N(CC12CCC(c3nc(C4CC4)no3)(CC1)CC2)c1cccc(-c2cc(C3CC3)on2)c1

>  <EC50 / nM>
78

$$$$
>  <Compound>
O=C(C1CCCOC1)N(CC12CCC(c3nc(C4CC4)no3)(CC1)CC2)c1cccc(-c2cnc(C3CC3)o2)c1 (racemic)

>  <EC50 / nM>
74

$$$$
>  <Compound>
O=C(N1CCCC(CO)C1)N(CC12CCC(c3nc(C4CC4)no3)(CC1)CC2)c1cccc(-c2nc(C3CC3)no2)c1 (racemic)

>  <EC50 / nM>
740

$$$$
>  <Compound>
CC(C)(C)c1noc(C23CCC(CN(C(=O)C4CCS(=O)(=O)CC4)c4cccc(-c5cc(C6CC6)on5)c4)(CC2)CC3)n1

>  <EC50 / nM>
701

$$$$
>  <Compound>
COCc1nc(-c2cccc(N(CC34CCC(c5nc(C6CC6)no5)(CC3)CC4)C(=O)C3CCN(C(=O)OC(C)(C)C)CC3)c2)cs1

>  <EC50 / nM>
856

$$$$
>  <Compound>
O=C(N1CCC(O)CC1)N(CC12CCC(c3nc(C4CC4)no3)(CC1)CC2)c1cccc(-c2nc(C3CC3)no2)c1

>  <EC50 / nM>
3670

$$$$
>  <Compound>
O=C(C1CCC(F)(F)CC1)N(CC12CCC(c3noc(C4CC(O)(C(F)(F)F)C4)n3)(CC1)CC2)c1cccc(-c2cnc(C3CC3)nc2)c1 (stereo not shown)

>  <EC50 / nM>
2000

$$$$

(P) CN1CCC(C(=O)N(CC23CCC(c4nc(C5CC5)no4)(CC2)CC3)c2cccc(-c3cnc(C4CC4)o3)c2)CC1
(Q) O=C(C1CCCCC1)N(CC12CCC(c3nc(C4CC4)no3)(CC1)CC2)c1cccc(-c2cnc(C3CC3)o2)c1
Identify the entry with the smaller EC50: P or Q . Let me know the label of the one you choose.
Q
